# EXPERIMENT SUMMARY: Cytotoxicity against human HT1080 cells after 3 days by sulforhodamine B assay
# Assay type: cell-based, HT-1080
# TEST CONDITIONS: read-out: ED50
MEASUREMENT NAME: CC50 at 72 h (µg/mL)
Form entry: value (µg/mL) — number only.

Consider the worked cases shown below.
[[record]]
compound = "COc1ccc2cc1Oc1ccc(cc1)C[C@H]1c3c(cc(OC)c(OC)c3Oc3cc4c(cc3OC)CCN[C@@H]4C2)CCN1C"
unit_abbreviation = "µg/mL"
reported_value = 7.4

[[record]]
compound = "COc1ccc2cc1Oc1ccc(cc1)C[C@H]1c3c(cc(OC)c(O)c3Oc3cc4c(cc3OC)CCN(C)[C@@H]4C2)CCN1C [HOMOAROMOLINE]"
unit_abbreviation = "µg/mL"
reported_value = 9

[[record]]
compound = "COc1ccc2cc1Oc1ccc(cc1)C[C@H]1c3cc(c(OC)cc3CCN1C)Oc1c(O)c(OC)cc3c1[C@@H](C2)NCC3"
unit_abbreviation = "µg/mL"
reported_value = 2.2


Now consider a different compound.
Entry under review: COc1ccc2cc1Oc1ccc(cc1)C[C@H]1c3cc(c(OC)cc3CCN1C)Oc1c(O)c(OC)cc3c1[C@@H](C2)N(C)CC3 . Reported CC50 at 72 h?
10

Recorded values, source ChEMBL document CHEMBL1147331.
